Test: AP1 Signaling Pathway (AID 357);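 also: ME-180 reporter cells stimulated with EGF at its EC50 level; % is scaled to controls: 0 for no effect and ±100 for the full control effect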
Details: ME-180 AP-1-bla reporter, EGF-induced, beta-lactamase ratio, 5 h; at 7.69 µM (top of the series) unless noted
Records with an inconclusive call do not appear. Calls of active or inactive are those of the source. Calls follow the shape of the dose curve; as a rule, active = well fitted curve in either direction with a large enough effect (not every such curve was filed as active); inconclusive = small, poorly fitted or top-dose-only effect, or another doubt; inactive = flat fitted curve, though single readings scatter.

molecule	activity change, negative = inhibition
COc1cc(C2SCCCCCCCCCCSC(c3ccc(O)c(OC)c3)SCCCCCCCCCCS2)ccc1O (stereo not drawn)	-0.286% (inactive)
c1ccc2sc(SCCSc3nc4ccccc4s3)nc2c1	8.08% (inactive)
O=C(O)c1cncc(C(=O)O)c1	1.97% (inactive)
c1ccc2nc(CC[C@@H]3CCCCN3)ccc2c1	7.07% (inactive)
C[C@@H]1O[C@@H](O)[C@@H](O)[C@H](O)[C@H]1O	-1.53% (inactive)
Cc1ccc(C(=N)c2ccccc2Cc2cccc3ccccc23)c2ccccc12	-3.34% (inactive)
Cc1ccc(S(=O)(=O)OCC(=O)O)cc1	2.36% (inactive)
O[C@H]([C@H](O)[C@@H](O)c1nc2ccccc2[nH]1)[C@@H](O)c1nc2ccccc2[nH]1	6.21% (inactive)
Cc1ccc(N(Cc2ccccc2)Cc2ccccc2)cc1	4.21% (inactive)
COc1ccc(Cc2ccccc2C(=O)O)c2ccccc12	-1.93% (inactive)
O=C(O)/C=C\C(=O)Nc1ccccn1	1.01% (inactive)
CSc1nc(N)c2ncn([C@@H]3O[C@@H](COP(=O)(O)OP(=O)(O)OP(=O)(O)O)[C@@H](O)[C@H]3O)c2n1	18.4% [at 38 µM] (inactive)
CN1CCc2[nH]nc(-c3n[nH]c4c3CN(C)CC4)c2C1	3.96% (inactive)
O=C(C[C@@H]1C=Cc2ccccc2N1C(=O)c1ccccc1)c1ccccc1	-6.74% (inactive)
CN1CCN(Cc2nc3cccc4c3c([n+]2[O-])-c2ccccc2-4)CC1	-4.75% (inactive)
N=C(N)S[C@H]1c2ccccc2-c2cc([N+](=O)[O-])ccc21	-7.27% (inactive)
O=C(O)[C@@H]1Cc2c([nH]c3ccccc23)[C@@H](CCCCO)N1	-12.4% (inactive)
CC1(CC(=O)O)O[C@H]2CCCCC[C@H]2O1 (stereo partly drawn) (tested in a mixture with another compound)	8.96% (inactive)

###

Target: Cytochrome P450 1A2 (Homo sapiens)
Assay: p450-cyp1a2 (AID 410); also: potency is read from the fitted curve at half-maximal effect
Conditions: recombinant CYP1A2, luciferin-ME demethylation, luminescence; series mostly up to 11.4 µM
Records with an inconclusive call do not appear. Calls of active or inactive are those of the source. Calls follow the shape of the full dose curve.
measurement.type: Potency

molecule	measurement.type	result
Nc1ccc(C(=O)C[C@H](N)C(=O)O)cc1O	Potency	inactive
C[C@@]12CCC(=O)C=C1CC[C@H]1[C@@H]2[C@@H](O)C[C@]2(C)[C@@H]1CC[C@@]2(O)C(=O)COC(=O)C1CCCC1	Potency	inactive
COC(=O)CC[C@@H](C)[C@H]1CC[C@H]2[C@H]3CC[C@H]4C[C@@H]5CC[C@@]4(C)C3(O5)[C@@H](Br)[C@@H](Br)[C@@]12C	Potency	inactive
Cc1cc2c(cc1C)NC1=C(N2)O[C@H](c2c[nH]c3ccc(COc4ccccc4)cc23)C1=O	Potency	2.51 µM (active)
COc1cc2nc(N(C)CCCNC(=O)[C@@H]3CCCO3)nc(N)c2cc1OC	Potency	inactive
N=C(N)SCCSC(=N)N	Potency	2 µM (active)
c1ccc(SCCc2ccncc2)cc1	Potency	0.2 µM (active)
C[C@@H](CN1CCC(Cc2ccccc2)CC1)[C@H](O)c1ccc(O)cc1	Potency	12.6 µM (active)
C[C@@H](N=C(N)N)C(=O)O	Potency	inactive
C[C@H]1CCCC2(CC[N+](C)(CCC[N+](C)(C)C)CC2)C1 (some centres undefined)	Potency	inactive
O=C(CCN1CCOCC1)Nc1ccc(F)cc1F	Potency	inactive
NC(=S)NCCC[C@@H](N)C(=O)O	Potency	inactive
NCOC(=O)Cc1ccc(Br)cc1	Potency	0.2 µM (active)
O=[N+]([O-])c1nccn1C[C@H](O)CN1CCCCC1	Potency	inactive

###

Assay: Stat Signaling Pathway (AID 446);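 also: ME-180 cervical cancer cells given 40 pM IL-6 alongside compound; SIE-controlled beta-lactamase reporter measured as 460/530 nm FRET emission ratio; % is scaled to controls: 0 for no effect and ±100 for the full control effect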
Conditions: ME-180 (cervical carcinoma) SIE beta-lactamase reporter, IL-6 stimulated, 5 h; at 7.69 µM (top of the series) unless noted
Records with an inconclusive call do not appear. Active and inactive are the calls of the source. The call rests on the fitted dose curve; in most records, active means well fitted curve in either direction with a large enough effect (not every such curve was filed as active); inconclusive means small, poorly fitted or top-dose-only effect, or another doubt; inactive means flat fitted curve, though single readings scatter.
Listed here: items and their measured activity, negative = inhibition.
measurement.type: activity, negative = inhibition

smi	result
Cn1c([N+](=O)[O-])cnc1CN1CCN(CCO)CC1	10.3% (inactive)
C[C@@H]1O[C@@H](n2cc(F)c(=O)[nH]c2=O)[C@H](O)[C@@H]1O	21.9% [at 38 µM] (inactive)
CC(C)(C)c1cc2c(O)c(c1)Cc1cc(C(C)(C)C)cc(c1O)Cc1cc(C(C)(C)C)cc(c1O)Cc1cc(C(C)(C)C)cc(c1O)Cc1cc(C(C)(C)C)cc(c1O)Cc1cc(C(C)(C)C)cc(c1O)Cc1cc(C(C)(C)C)cc(c1O)Cc1cc(C(C)(C)C)cc(c1O)C2	-5.63% (inactive)
Cc1ccccc1C(=N)c1ccccc1Cc1cccc2ccccc12	9.25% (inactive)
N=C(N)SCc1cc(Cl)cc(Cl)c1O	2.98% (inactive)
O=C(O)C[C@H](Cc1ccccc1)C(=O)O	-5.23% (inactive)
N#CCCn1c(=O)c(-c2cc(F)cc(F)c2)nc2cnc(Oc3cccc(Cl)c3)nc21	12.5% (inactive)
c1cncc(CSc2ncnc3nc[nH]c23)c1	8.79% (inactive)
CCC1=C(C[C@H]2NCCc3ccccc32)C[C@@H]2c3cc(OC)c(OC)cc3CCN2C1	-23.5% (inactive)
NC1=N[C@H](c2ccc(Cl)cc2)N(c2ccc(S(N)(=O)=O)cc2)C(N)=N1	-0.371% (inactive)
Cc1cc(O)c(C(C)C)cc1CN1CCCCC1	5.31% (inactive)
Oc1ccc([C@@H]2CNCCc3c2cc(O)c(O)c3Cl)cc1	18.7% [at 38 µM] (inactive)
CN1CCN(Cc2nc3cccc4c3c([n+]2[O-])-c2ccccc2-4)CC1	6.12% (inactive)
N#C/C(=C\N1CCNC1=S)C(=O)c1ccc2ccccc2c1	-8.82% (inactive)
NS(=O)(=O)c1cc(C(=O)O)c(O)c2ccccc12	10.7% (inactive)
NS(=O)(=O)c1ccc(NC2(C(=O)O)CCCC2)cc1	11.8% (inactive)
N[C@@H](Cc1[nH]nc2ccccc12)C(=O)O	-0.642% (inactive)
Cn1cnc([N+](=O)[O-])c1Sc1nc(N)nc2c1ncn2[C@H]1C[C@H](O)[C@@H](CO)O1	0.176% (inactive)
CC(=O)O[C@H]1CC[C@]2(C)C(=CC[C@H]3[C@H]4C[C@H]5O[C@]6(CC[C@H](C)CN6)[C@H](C)[C@@H]5[C@]4(C)CC[C@@H]32)C1	3.85% (inactive)
O=C(O)/C=C\C(=O)Nc1ccc2c(c1)C(=O)c1cc(F)ccc1-2	0.748% (inactive)
Cc1cc([N+](=O)[O-])c(C)c(Br)c1C	6.97% (inactive)
CSC1(SC2=NCCN2)SC2(NCCN2)S1	5.32% (inactive)
O=C(O)/C=C\C(=O)Nc1ccccn1	-1.9% (inactive)
O=C(O)CSc1ccc([N+](=O)[O-])cc1[N+](=O)[O-]	9.83% (inactive)
O=C(O)C[C@H](NC(=O)CP(=O)(O)O)C(=O)O.[NH-][C@@H]1CCCC[C@@H]1[NH-].[Pt]	-12% (inactive)

###

Test: NFAT Signaling Pathway (AID 444);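 also: carbachol stimulus at about its EC50 of 1 µM final; % is scaled to controls: 0 for no effect and ±100 for the full control effect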
Settings: Jurkat NFAT-bla M1, carbachol, beta-lactamase ratio, 5 h; at 7.69 µM (top of the series) unless noted
Results filed as inconclusive are left out. Activity calls are given as the source filed them. Calls follow the shape of the dose curve; as a rule, active = well fitted curve in either direction with a large enough effect (not every such curve was filed as active); inconclusive = small, poorly fitted or top-dose-only effect, or another doubt; inactive = flat fitted curve, though single readings scatter.
Listed here: items and their measured activity change, negative = inhibition.

smi	activity change, negative = inhibition
N#C/C(=C(\O)C(=O)O)c1ccc(-c2cccc3ccccc23)cc1	4.07% (inactive)
C[C@@H]1C[C@@H]2[C@H]3CCC4=CC(=O)C=C[C@]4(C)[C@]3(Cl)[C@@H](O)C[C@@]2(C)[C@@]1(O)C(=O)CO	6.53% [at 38 µM] (inactive)
CCCCCCCCCCCCC/C=C\[C@H](O)[C@H](N)CO	1.11% [at 38 µM] (inactive)
CN(C)c1ccc(-c2cc(NCc3ccccc3)ncn2)cc1	12.6% (inactive)
C[C@@]12CCC(=O)C=C1CC[C@H]1[C@@H]2[C@@H](O)C[C@]2(C)[C@@H]1CC[C@@]2(O)C(=O)CO	14% (inactive)
COC(=O)[C@]1(C)CCC(c2ccc(C)cc2)=C(CC(=O)O)C1	-1.89% (inactive)
O=C(O)c1nc2nc(Cl)c(Cl)nc2[nH]1	-0.0714% (inactive)

###

Test: Cell Viability - LYMP2-006 (AID 978);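 also: cells exposed to compound for 24 hours; nearly all actives have a fitted effect of over 60% in size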
Conditions: LYMP2-006 lymphoblastoid cell viability, qHTS; series mostly up to 92.2 µM
Results filed as inconclusive are left out. Activity calls are given as the source filed them. Calls come from the whole dose curve; as a rule, active = well fitted cell-killing curve with a large enough effect; inconclusive = small, poorly fitted or top-dose-only effect; inactive = flat fitted curve, though single readings scatter.
Classes used: active, inactive

compound	cat
C/C=C1/C(=O)C[C@H]2[C@@H]3CCC4=CC(=O)CC[C@]4(C)[C@H]3CC[C@]12C	active
CC(CCC(=O)O)(c1ccc(O)cc1)c1ccc(O)cc1	inactive
CCCCC(CC)COC(=O)COc1ccc(Cl)cc1Cl (centres undefined)	inactive
C=CC(=O)OCCCCCCOC(=O)C=C	active
Clc1nc2ccccc2nc1Cl	inactive
O=C(Cl)c1ccc([N+](=O)[O-])cc1	inactive
CCOC(=O)C1OC1c1ccccc1 (centres undefined)	inactive
C=CC(C)(O)CCCC(C)CCCC(C)CCCC(C)C (centres undefined)	inactive
COc1ccc(C(=O)Nc2ccccc2)cc1[N+](=O)[O-]	inactive
CCCCOC(=O)COc1ccc(Cl)cc1Cl	inactive
c1cc2c3c(c1)ccc1cccc(c13)C2	inactive
c1ccc(CSCc2ccccc2)cc1	inactive
Cc1cccnc1	inactive
N=C1C=CC(=C(c2ccc(N)cc2)c2ccc(N)cc2)C=C1	active
Oc1cc(Cl)cc(Cl)c1Cl	inactive
O=C(OCc1ccccc1)c1ccccc1O	inactive
CC(=O)CC(=O)Nc1ccccc1	inactive
C=Cc1cccc(C)c1	inactive
CC(C)OCC1CO1 (centres undefined)	inactive
C1CCCNCC1	inactive
CCC(Cl)CC(Cl)C(Cl)C(Cl)C(Cl)C(C)Cl (centres undefined)	inactive
CC(=O)OCc1ccc2c(c1)OCO2	inactive
CCc1ccc(C(c2ccc(CC)cc2)C(Cl)Cl)cc1	inactive
C=CC(=O)CC	inactive
Brc1ccc(-c2ccccc2)cc1	inactive
Cc1cc(=O)oc2cc(O)cc(O)c12	inactive
S=C(NC1CCCCC1)NC1CCCCC1	inactive
CCOc1ccc2nc(N)sc2c1	inactive
Nc1ccc(N)c(Cl)c1	inactive
